Target: mouse alpha2B receptor (Mus musculus)
Construct: expressed in transfected cells; host or cells: HEK 293
Sequence (P30545 1-453): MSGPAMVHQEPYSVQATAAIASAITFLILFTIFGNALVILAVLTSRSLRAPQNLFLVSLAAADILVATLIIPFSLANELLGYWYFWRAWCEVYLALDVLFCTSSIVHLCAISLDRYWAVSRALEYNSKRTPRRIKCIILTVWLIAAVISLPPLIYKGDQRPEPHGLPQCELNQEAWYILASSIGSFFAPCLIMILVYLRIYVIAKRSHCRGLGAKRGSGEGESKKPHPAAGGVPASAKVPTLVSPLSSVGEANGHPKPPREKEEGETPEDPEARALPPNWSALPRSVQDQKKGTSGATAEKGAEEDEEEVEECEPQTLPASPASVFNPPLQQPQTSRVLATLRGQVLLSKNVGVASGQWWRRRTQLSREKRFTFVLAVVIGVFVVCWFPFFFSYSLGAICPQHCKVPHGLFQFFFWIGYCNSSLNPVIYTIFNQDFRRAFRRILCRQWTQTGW
Assay: FLIPR Ca+2 influx antagonist assay, alpha 2B
Assay type: cell-based
Details: value in parentheses; HEK 293 cells, G16
outcome-measure: % Antagonism Alpha 2B (%)
State just the number; it will be interpreted in %.

[[record]]
compound = "CN1CCc2c(C#N)c(N)n(N)c(=S)c2C1 [Example 6]"
data_value = 112

[[record]]
compound = "CN1Cc2c(c(C#N)c(N)n(N)c2=S)CC1(C)C [Example 7]"
data_value = 97


// fetch % Antagonism Alpha 2B for Cn1c(N)c(C#N)c2c(c1=S)CNCC2 [Example 4] ; system: mouse alpha2B receptor (Mus musculus)
93

// fetch % Antagonism Alpha 2B for CN1CCc2c(C#N)c(N)n(C)c(=S)c2C1 [Example 5] ; system: mouse alpha2B receptor (Mus musculus)
95

// fetch % Antagonism Alpha 2B for CN1CCc2c(C#N)c(N)n(C)c(=O)c2C1 [Example 9] ; system: mouse alpha2B receptor (Mus musculus)
88

// fetch % Antagonism Alpha 2B for CCn1c(N)c(C#N)c2c(c1=S)CN(C)CC2 [Example 8] ; system: mouse alpha2B receptor (Mus musculus)
95

====

molecular target: Alpha 1A adrenergic receptor (Homo sapiens, UniProt P35348); assay: FLIPR Ca+2 influx antagonist assay, alpha 1A; format: cell-based; conditions: antagonism of norepinephrine calcium signal; read-out: IC50 Alpha 1A
Sequence (P35348 whole entry): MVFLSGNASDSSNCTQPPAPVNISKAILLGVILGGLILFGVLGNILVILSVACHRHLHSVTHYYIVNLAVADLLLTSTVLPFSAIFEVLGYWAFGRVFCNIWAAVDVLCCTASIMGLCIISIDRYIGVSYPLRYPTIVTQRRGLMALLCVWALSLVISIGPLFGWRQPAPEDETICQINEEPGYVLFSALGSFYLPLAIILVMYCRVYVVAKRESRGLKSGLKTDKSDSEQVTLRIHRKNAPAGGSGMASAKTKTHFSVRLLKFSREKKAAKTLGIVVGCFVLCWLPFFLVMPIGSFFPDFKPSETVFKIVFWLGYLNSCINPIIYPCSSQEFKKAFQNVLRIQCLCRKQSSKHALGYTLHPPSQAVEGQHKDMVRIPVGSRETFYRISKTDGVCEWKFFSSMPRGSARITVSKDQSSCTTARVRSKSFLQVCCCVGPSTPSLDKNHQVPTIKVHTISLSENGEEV
pIC50: −log10 of the molar value.
outcome-measure: pIC50

Dear colleague, please send me the reported pIC50 for CN1CCc2c(C#N)c(N)n(N)c(=S)c2C1 when you can.
< 5.12

====

Form field: pIC50 (one value per entry).
biological target: mouse alpha2B receptor (Mus musculus, UniProt P30545); construct: expressed in transfected cells; host or cells: HEK 293; assay: FLIPR Ca+2 influx antagonist assay, alpha 2B; assay type: cell-based
By convention, pIC50 is the negative base-10 log of a molar concentration.

[[record]]
smiles_repr = "CN1Cc2c(c(C#N)c(N)n(N)c2=S)CC1(C)C"
target_desc = "mouse alpha2B receptor (Mus musculus, UniProt P30545)"
data_value = 7.54


Attention now turns to another entry.
Dear colleague, please send me the reported pIC50 for CN1CCc2c(C#N)c(N)n(C)c(=S)c2C1 when you can.
8.00
